Hello, the source for this data is ChEMBL document CHEMBL1201862, in case you need it.

Tested on: NCI-H460
TEST DESCRIPTION: NCI tumour cell line growth inhibition, 48 h
The source made the active and inactive calls. No stated cut-off is given here; in the data, active = GI50 up to about 1.1 µM and inactive = higher.
Select the correct class. Options are YES for active, NO for inactive and nothing else.

These solved cases illustrate the format of a correct answer.
COMPOUND	ASSIGNED LABEL
O=C(CC1(O)C(=O)Nc2ccc([N+](=O)[O-])cc21)c1ccc(Br)cc1 (stereo not given)	NO
Cn1c(=O)c2/c(n(C)c1=O)=N\C=c1\c(=O)n(C)c(=O)n(C)\c1=N\C=2	NO
COc1cc2c(cc1OCCCCOc1cc(-c3ccc(F)cc3)nc(C)n1)N=C[C@@H]1CCCN1C2=O	YES
COc1ccc(/C=N/NC(=O)c2sc(=S)n(-c3ccccc3)c2N)cc1	NO

Here is another compound to look at.
IN: Please let me know the test result on file for CC1OC(OC2C[C@](O)(C(=O)CF)Cc3c(O)c4c(c(O)c32)C(=O)c2ccccc2C4=O)CC(N)C1O (stereo not given in full) .
OUT: YES

----------
System: BT-549
TEST DESCRIPTION: NCI tumour cell line growth inhibition, 48 h
Activity calls are given as the source filed them. Cut-off read from the data, not from the text of the source: active = GI50 up to about 1.1 µM and inactive = higher.
Select the correct class. Options are Yes = active, No = inactive and nothing else.

These solved cases illustrate the format of a correct answer.
COMPOUND	ASSIGNED LABEL
C[C@]12CC[C@H](O)CC1=CC[C@@H]1[C@@H]2CC[C@]2(C)NC(=O)/C(=C\c3ccccc3)C[C@@H]12	No
COC(=O)Nc1nc(=O)c2cc(OC)c(OC)cc2[nH]1	No
CC1OC(O[C@H]2C3C=CO[C@@H](OC4OC(CO)C(O)C(O)C4O)C3[C@@]3(COC(=O)/C=C/c4ccc(O)cc4)O[C@@H]23)C(O)C(O)C1O (stereo not given in full)	No

IN: Please let me know the test result on file for CC1(C)SC2C(NC(=O)Cc3ccccc3)C(=O)N2C1C(=O)O (stereo not given) .
OUT: No

IN: Please let me know the test result on file for COc1ccc(-c2cc(O)c3cccnc3n2)cc1 .
OUT: No

IN: Please let me know the test result on file for COC(=O)c1ccc(/C=C/c2cc(O)ccc2O)cc1 .
OUT: Yes

IN: Please let me know the test result on file for COc1ccc2c(=O)c(-c3cc4c(cc3OC)OCO4)coc2c1 .
OUT: No

IN: Please let me know the test result on file for C=CC/C=C/Cc1csc(C(C)(C)C(O)C/C=C/C(=C)CCNC(=O)OC)n1 (stereo not given) .
OUT: No

IN: Please let me know the test result on file for CNC1C(OC2C(OC3C(O)C(O)C(O)C(O)C3O)OC(C)C2(O)CO)OC(CO)C(O)C1O.N=C(N)N.NC(=O)O (stereo not given) .
OUT: No

IN: Please let me know the test result on file for c1ccc(-c2c(-c3cccs3)[nH]c(-c3cccs3)c2-c2ccccn2)nc1 .
OUT: No

IN: Please let me know the test result on file for CCCCCCCCCc1cc(O)c(O)cc1CCCCCCCCC .
OUT: No

----------
Recorded GI50 for the following molecules
Test system: SNB-19
TEST DESCRIPTION: NCI tumour cell line growth inhibition, 48 h
Active and inactive are the calls of the source. Rule as the data show it: active = GI50 up to about 1.1 µM and inactive = higher.

MOLECULE	GI50
Cc1ccc(/C=N/Nc2ncccn2)s1	> 100 µM (inactive)

# context switch: different molecule, same GI50
Recorded GI50 (molecule C/N=C1\OC2=C3C(c4ccccc4)(O/C(=N/C)N(C)C3(c3ccccc3)OC2=O)N1C (stereo unspecified) ): > 100 µM (inactive)
